- Tested on: OVCAR-3
- testProtocol: NCI tumour cell line growth inhibition, 48 h
The campaign covered roughly 56,000 sequences. About 4,300 (7.7%) were called active. The list is a sample of the results. Results with a measured potency or affinity are listed apart.
Reported GI50 is given for each of the following substances.
Enter your answer as a number in µM; do not include the unit.

Guide cases for GI50, answers given:
mu-(1,7-nanodiamine-N,N')bis-(cis-aminedichloroplatimum (II)), CHEMBL2146215 ... 29
cis-Bis[[(trimethylsilyl)methyl]amino]tetrachloroplatinum(IV), CHEMBL2146191 ... 2.99
[Bis(aminomethyl)pentamethylenesilane]dichloropaltinum(II), CHEMBL2146202 ... 6.5
[Bis(aminomethyl)diethylsilane]tetrachloroplatinum(IV), CHEMBL2146203 ... 6.11

Now turn to the next substance.
Query block: Consider the substance [Bis(aminomethyl)pentamethylenesilane]tetrachloropaltinum(IV), CHEMBL2146204 and give its measured GI50.
Result block: 4.56
